Experimental Target: the molecule itself
Protocol Description: SEC; HiPrep Superdex 200 16/600 after Ni-NTA; 0.03% DDM, 50 mM sodium phosphate pH 7.5, 150 mM NaCl; ratio of heptamers to monomers
Observation Type: binding result

MscS YFF I97W (complex, E. coli, UniProt P0C0S1 1-286, looked up) MEDLNVVDSINGAGSYLVANQALLLSYAVNIVAALAIIIVGLIIARMISNAVNRLMISRKIDATVADFLSALVRYGIIAFTLIAALGRVGVQTASVWAVLGAAGLAVGLALQGSLSNLAAGVLLVMFRPFRAGEYVDLGGVAGTVLSVQIFSTTMRTADGKIIVIPNGKIIAGNIINFSREPVRRNEFIIGVAYDSDIDQVKQILTNIIQSEDRILKDREMTVRLNELGASSINFVVRVFSNSGDLQNVYFDVLERIKREFDAAGISFPYPQMDVNFKRVKEDKAA
binds
MscS YFF R88W (complex, E. coli, UniProt P0C0S1 1-286, looked up) MEDLNVVDSINGAGSYLVANQALLLSYAVNIVAALAIIIVGLIIARMISNAVNRLMISRKIDATVADFLSALVRYGIIAFTLIAALGWVGVQTASVIAVLGAAGLAVGLALQGSLSNLAAGVLLVMFRPFRAGEYVDLGGVAGTVLSVQIFSTTMRTADGKIIVIPNGKIIAGNIINFSREPVRRNEFIIGVAYDSDIDQVKQILTNIIQSEDRILKDREMTVRLNELGASSINFVVRVFSNSGDLQNVYFDVLERIKREFDAAGISFPYPQMDVNFKRVKEDKAA
binds
MscS YFF G90W (complex, E. coli) MEDLNVVDSINGAGSYLVANQALLLSYAVNIVAALAIIIVGLIIARMISNAVNRLMISRKIDATVADFLSALVRYGIIAFTLIAALGRVWVQTASVIAVLGAAGLAVGLALQGSLSNLAAGVLLVMFRPFRAGEYVDLGGVAGTVLSVQIFSTTMRTADGKIIVIPNGKIIAGNIINFSREPVRRNEFIIGVAYDSDIDQVKQILTNIIQSEDRILKDREMTVRLNELGASSINFVVRVFSNSGDLQNVYFDVLERIKREFDAAGISFPYPQMDVNFKRVKEDKAA
binds
